Tested on: Murine T-cell line
MEASUREMENT PROTOCOL: Immunomodulatory activity in Kunming mouse T cells assessed as inhibition of ConA-induced cell proliferation at 40 uM after 48 hrs by MTT assay
Format: functional, cell-based
Activity calls are given as the source filed them. The rule behind the calls is not given here.
ASSAY METRIC: inhibition

C/C1=C\[C@H]2C=C(CO)[C@@H](C)[C@H]3[C@H](CC(C)C)NC(=O)[C@]32C(=O)CC[C@H](O)C(=O)CC1 : Active
C/C1=C\[C@H]2C=C(CO)[C@@H](C)[C@H]3[C@H](CC(C)C)NC(=O)[C@]32C(=O)CCC(=O)[C@@H](O)CC1 : Active
C/C1=C\[C@@H](C)C/C=C/[C@H]2[C@H](O)[C@@]3(C)O[C@@]4(CC56OC5Nc5ccccc56)NC(=O)[C@]2(C(=O)CC[C@H](O)C1=O)[C@H]4[C@@H]3C (stereo in doubt; 12) : Active

---

Test system: MCF7
MEASUREMENT PROTOCOL: Antiproliferative activity against human MCF7 cells after 48 hrs by MTT assay
Type: functional, cell-based
TEST CONDITIONS: MCF7, 48 h
ASSAY METRIC: IC50
Could you write the number and then its unit?

C/C1=C\[C@@H](C)C/C=C/[C@H]2[C@H](O)[C@@]3(C)O[C@@]4(CC56OC5Nc5ccccc56)NC(=O)[C@]2(C(=O)CC[C@H](O)C1=O)[C@H]4[C@@H]3C (stereo in doubt; 11) : 27.9 µM

// C=C1[C@@H](C)[C@H]2[C@H](C(OC)c3c[nH]c4ccccc34)NC(=O)[C@]23C(=O)CC[C@H](O)C(=O)/C(C)=C/[C@@H](C)C/C=C/[C@H]3[C@@H]1O (stereo in doubt; 8) : IC50 value = 20.7 µM

---

System: Staphylococcus aureus
MEASUREMENT PROTOCOL: Antimicrobial activity against Staphylococcus aureus by agar well diffusion method
Assay type: functional, organism-based
Calls of active or inactive are those of the source. The calls are words filed in the database; no cut-off is given here.
ASSAY METRIC: Activity

Examples from the recorded data:
C/C1=C\[C@@H](C)C/C=C/[C@H]2[C@@H]3O[C@]3(C)[C@@H](C)[C@H]3[C@H](C(O)c4c[nH]c5ccccc45)NC(=O)[C@]32C(=O)CC[C@H](O)C1=O (stereo in doubt; 6) : inactive
C/C1=C\[C@@H](C)C/C=C/[C@H]2[C@H](O)[C@@]3(C)O[C@@]4(CC56OC5Nc5ccccc56)NC(=O)[C@]2(C(=O)CC[C@H](O)C1=O)[C@H]4[C@@H]3C (stereo in doubt; 11) : inactive
C/C1=C\[C@@H](C)C/C=C/[C@H]2[C@H](O)[C@@]3(C)O[C@@]4(CC(=O)c5ccccc5N)NC(=O)[C@]2(C(=O)CC[C@H](O)C1=O)[C@H]4[C@@H]3C : inactive
C/C1=C\[C@H]2C=C(CO)[C@@H](C)[C@H]3[C@H](CC(C)C)NC(=O)[C@]32C(=O)CCC(=O)[C@H](O)CC1 : inactive
C/C1=C\[C@@H](C)C/C=C/[C@H]2[C@@H]3O[C@]3(C)[C@@H](C)[C@H]3[C@H](C(O)c4c[nH]c5ccccc45)NC(=O)[C@]32C(=O)CC[C@H](O)C1=O (stereo in doubt; 5) : inactive

Query compound follows.
// `C/C1=C\[C@H]2C=C(CO)[C@@H](C)[C@H]3[C@H](CC(C)C)NC(=O)[C@]32C(=O)CCC(=O)[C@@H](O)CC1` : Activity value = inactive
